- Tested on: Mus musculus
- assay_notes: Percent change locomotor activity in mice at 1 mg/kg i.p. in 3 h.
- Type: functional
- test_parameters: route intraperitoneal
Change for assorted compounds
Quick note: number first, unit second.

compound	Change
Cc1ccc(C2CC3CCC(C2c2cc(C(C)C)no2)N3C)cc1 (stereo unspecified)	-20%

### Prompt Item under review: Cc1cc(C2C(c3ccc(Cl)cc3)CC3CCC2N3C)on1 (stereo unspecified) . Reported Change?
### Response 926%

### Prompt Item under review: Cc1ccc(-c2cc(C3C(c4ccc(Cl)cc4)CC4CCC3N4C)on2)cc1 (stereo unspecified) . Reported Change?
### Response -49%

### Prompt Item under review: CN1C2CCC1C(c1cc(-c3ccc(F)cc3)no1)C(c1ccc(Cl)cc1)C2 (stereo unspecified) . Reported Change?
### Response -77%

### Prompt Item under review: Cc1ccc(C2CC3CCC(C2c2cc(-c4ccccc4)no2)N3C)cc1 (stereo unspecified) . Reported Change?
### Response 89%

### Prompt Item under review: CN1C2CCC1C(c1cc(-c3ccc(Cl)cc3)no1)C(c1ccc(Cl)cc1)C2 (stereo unspecified) . Reported Change?
### Response 74%
